Every entry's value here was drawn from ChEMBL document CHEMBL1157809.

tested on: RAW264.7; assay: Antiinflammatory activity in mouse RAW264.7 cells assessed as inhibition of LPS-induced COX2 expression at 10 uM by immunoblot analysis; assay type: functional
The source made the active and inactive calls. The rule behind the calls is not given here.
parameter: Activity

>>> measured("C=C(C)[C@H]1C/C=C2/C(=O)O[C@H](C/C(C)=C\\C(=O)[C@@H](O)CC(=O)C1)[C@H]2O [GYROSANOLIDE B]")
"inactive"
>>> measured("C=C(C)[C@H]1C/C=C2/C(=O)O[C@H](C/C(C)=C/C(=O)[C@H](OC)CC(=O)C1)[C@H]2O [GYROSANOLIDE C]")
"inactive"
>>> measured("C=C(C)[C@@H]1CC(=O)C[C@H]2O[C@](C)(CC2=O)C[C@@H](O)[C@@H]2O[C@]2(C(=O)OC)[C@@H](O)C1")
"inactive"
